System: β-galactosidase in CMV-LacZ C2C12 myotubes
Assay: CMV-LacZ secondary screen in C2C12 myotubes (β-Gal stabilizing assay)
Type: cell-based, mouse
Details: 20 uM; C2C12 CMV-LacZ myotubes; fold relative to DMSO
readout: CMV-LACZ in Myotubes, signal relative to DMSO

INSERT INTO assay_data (molecule, reported_measurement) VALUES
  ('Cc1ccccc1NC(=O)NCCCN1CCN(C)CC1', 1.0047),
  ('Cc1ccc(S(=O)(=O)N2CN(CC3CCCO3)c3nc4ccccc4nc32)c(C)c1 (stereo not shown)', 1.096),
  ('O=C(Cn1nc(-c2ccc(Cl)cc2)ccc1=O)N1CCC2(CC1)OCCO2', 1.0444),
  ('CNc1cc([N+](=O)[O-])ccc1OCc1ccccc1', 0.5772),
  ('COc1ccccc1C(=O)NCCOc1ccc(C(C)(C)C)cc1', 0.452),
  ('Cc1cc(C)cc(OCC(=O)N/N=C/c2ccccn2)c1', 0.8682),
  ('Cc1cc(C)nc(NC(=O)c2ccc(Cl)cc2Cl)n1', 1.0245),
  ('COc1ccccc1N(C(=O)CNC(=O)c1ccco1)C(C(=O)NC1CCCCC1)c1ccncc1 (stereo not shown)', 1.0114),
  ('COC(=O)Cc1c(O)ccn(Cc2ccc3c(c2)OCO3)c1=O', 0.8409),
  ('CC(=O)C1=C(C)Nc2ncnn2C1c1ccc(C)cc1 (stereo not shown)', 1.0630),
  ('CSc1ccc(S(=O)(=O)NCc2ccccc2)cc1', 0.9244),
  ('COC(=O)c1ccccc1NC(=O)c1cc[n+]([O-])cc1', 1.085),
  ('Cc1ccccc1NC(=O)c1ccc2c(O)c(S(=O)(=O)c3ccccc3)c(=O)[nH]c2c1', 1.0340),
  ('CCCCCCC1CC(=O)NC(=O)N1 (stereo not shown)', 1.028),
  ('O=Cc1cn(Cc2ccc(F)cc2Cl)c2ccccc12', 1.083),
  ('O=c1c2cc(-c3ccccc3)sc2nc2n1N=C(c1ccccc1)CS2', 1.0421),
  ('CCn1c(=O)c2cc(C(=O)N(C)c3cc(C)ccc3OC)sc2c2ccccc21', 1.0310),
  ('CC(C)(C)c1ccc(C(=O)OCC(=O)Nc2sc3c(c2C#N)CCC3)cc1', 1.1537),
  ('CCCc1nnc(SCC(=O)NC2CCCC2)n1CCOC', 1.0547);
